ROCK1 (Homo sapiens, UniProt Q13464) data, read-out pIC50
Sequence (Q13464 whole entry): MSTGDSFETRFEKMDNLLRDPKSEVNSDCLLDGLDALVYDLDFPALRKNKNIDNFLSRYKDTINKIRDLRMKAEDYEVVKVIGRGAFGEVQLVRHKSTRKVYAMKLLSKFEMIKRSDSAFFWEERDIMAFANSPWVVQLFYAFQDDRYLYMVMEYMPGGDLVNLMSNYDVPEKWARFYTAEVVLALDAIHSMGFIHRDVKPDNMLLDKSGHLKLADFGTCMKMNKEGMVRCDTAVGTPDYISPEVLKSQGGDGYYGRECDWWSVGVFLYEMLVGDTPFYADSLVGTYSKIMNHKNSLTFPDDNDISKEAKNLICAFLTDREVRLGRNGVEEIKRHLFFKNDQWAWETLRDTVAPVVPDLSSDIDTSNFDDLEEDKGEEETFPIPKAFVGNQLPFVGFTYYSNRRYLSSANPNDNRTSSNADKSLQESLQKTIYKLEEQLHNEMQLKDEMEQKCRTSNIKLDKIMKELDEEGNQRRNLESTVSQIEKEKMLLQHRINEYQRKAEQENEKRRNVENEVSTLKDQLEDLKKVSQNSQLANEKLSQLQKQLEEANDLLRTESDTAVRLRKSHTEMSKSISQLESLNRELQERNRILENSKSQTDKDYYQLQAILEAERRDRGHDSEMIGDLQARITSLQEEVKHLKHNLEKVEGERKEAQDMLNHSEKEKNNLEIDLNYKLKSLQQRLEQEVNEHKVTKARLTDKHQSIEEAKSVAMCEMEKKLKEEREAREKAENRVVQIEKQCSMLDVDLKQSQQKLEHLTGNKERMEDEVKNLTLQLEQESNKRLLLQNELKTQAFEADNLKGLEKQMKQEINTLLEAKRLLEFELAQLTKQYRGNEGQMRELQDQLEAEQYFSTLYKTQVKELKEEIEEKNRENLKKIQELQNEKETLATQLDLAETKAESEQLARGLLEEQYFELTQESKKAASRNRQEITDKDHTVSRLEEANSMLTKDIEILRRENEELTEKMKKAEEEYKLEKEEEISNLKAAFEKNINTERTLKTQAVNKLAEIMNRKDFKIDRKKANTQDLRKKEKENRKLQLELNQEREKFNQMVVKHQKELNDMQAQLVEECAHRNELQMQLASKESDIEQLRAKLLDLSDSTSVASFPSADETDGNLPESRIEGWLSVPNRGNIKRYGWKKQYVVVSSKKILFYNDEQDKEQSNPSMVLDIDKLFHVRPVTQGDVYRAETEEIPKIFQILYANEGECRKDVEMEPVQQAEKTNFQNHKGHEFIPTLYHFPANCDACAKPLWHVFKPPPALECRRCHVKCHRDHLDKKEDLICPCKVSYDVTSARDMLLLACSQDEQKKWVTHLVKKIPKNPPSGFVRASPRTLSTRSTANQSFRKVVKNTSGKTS
pIC50: −log10 of the molar value.
Reported Property: pIC50

> print(dat)
                                    compound       reading
 1  CCn1nc(-c2ccc(C3=CCN(CC(F)(F)F)C3)c(C)c2)nc1Nc1cc2c(cc1C)C(=O)NC2C (stereo not shown)        < 5.00
 2  CCn1nc(-c2ccc(-c3ccc(C)nc3)nc2)nc1Nc1ccc2c(c1)CNC2=O        < 5.00
 3  Cc1cc(-c2nc(Nc3ccc4c(c3C)CNC4=O)n(C)n2)ccc1-n1cnc(C2CC2)c1        < 5.00
 4  CCn1nc(-c2ccc(-c3ccc(C4CC4)nc3)cc2C)nc1Nc1cc2c(cc1C)C(=O)NC2C (stereo not shown)  5.00 to 5.52
 5  CCn1nc(-c2ccc(-c3ccc(C)nc3)cc2)nc1Nc1ccc2c(c1C)C(C)NC2=O (stereo not shown)        < 5.00
 6  CCn1nc(-c2ccc(-c3cnc(C)c(C)c3)cc2)nc1Nc1ccc2c(c1)CNC2=O        > 6.52
 7  CCn1nc(-c2ccc(C3=CCNCC3)cc2)nc1Nc1ccc2c(c1)CNC2=O  5.00 to 5.52
 8  CCn1nc(-c2ccc(-c3ccc(C4CC4)nc3)cc2C)nc1Nc1ccc2c(c1)C(C)NC2=O (stereo not shown)        < 5.00
 9  CCn1nc(-c2ccc(-c3ccc(C4CC4)nc3)c(C)c2)nc1Nc1ccc2c(c1)CNC2=O        < 5.00
10  CCn1nc(-c2ccc(-c3ccc(C)nc3)c(C(C)(C)O)c2)nc1Nc1cc2c(cc1C)C(=O)NC2C (stereo not shown)        < 5.00
11  CCn1nc(-c2ccc(-c3ccc(C4CC4)nc3)c(C)c2)nc1Nc1cc2c(cc1C)C(=O)NC2C (stereo not shown)  5.00 to 5.52
12  CCn1nc(-c2ccc(-c3ccncc3)cc2)nc1Nc1ccc2c(c1)CNC2=O  5.00 to 5.52
13  Cc1nc(C2CC2)cn1-c1ccc(-c2nc(Nc3ccc4c(c3)C(C)(C)NC4=O)n(C)n2)cc1        < 5.00
14  CCn1nc(-c2cc(C)c(-c3ccc(C)nc3)cc2F)nc1Nc1cc2c(cc1C)C(=O)NC2C (stereo not shown)  5.00 to 5.52
15  CCn1nc(-c2ccc(-c3ccnc(C)c3)c(C)c2)nc1Nc1ccc2c(c1)CNC2=O  5.00 to 5.52
16  CCn1nc(-c2ccc(-n3cnc(C4CC4)c3)cc2C)nc1Nc1cc2c(cc1C)C(=O)N[C@@H]2C  5.00 to 5.52
17  CCn1nc(-c2cc(C)c(-c3ccc(C4CC4)cn3)cc2C)nc1Nc1cc2c(cc1C)C(=O)NC2C (stereo not shown)        < 5.00
18  CCn1nc(-c2ccc(C3CCCN(CC(F)(F)F)C3)c(C)c2)nc1Nc1cc2c(cc1C)C(=O)NC2C (stereo not shown)        < 5.00
19  CCn1nc(-c2ccc(-c3ccc(C4CC4)nc3)cc2)nc1Nc1cc2c(cc1F)C(=O)N[C@@H]2C  5.00 to 5.52
20  CCn1nc(-c2cc(C)c(-c3ccc(C4CC4)nc3)cc2F)nc1Nc1cc2c(cc1C)C(=O)NC2C (stereo not shown)  5.00 to 5.52
21  CCn1nc(-c2ccc(-c3ccc(C)nc3)cc2)nc1Nc1ccc2c(c1)C(F)NC2=O (stereo not shown)  5.00 to 5.52
22  CCn1nc(-c2ccc(-c3cnn(CC(F)(F)F)c3)cc2)nc1Nc1cc2c(cc1C)C(=O)NC2C (stereo not shown)  5.00 to 5.52
23  CCn1nc(-c2ccc(-n3cc(C4CC4)nc3C)cc2)nc1Nc1ccc2c(c1C)CNC2=O        < 5.00
24  CCn1nc(-c2ccc(C3CCNCC3)cc2)nc1Nc1ccc2c(c1)CNC2=O        < 5.00
25  CCn1nc(-c2ccc(C3CCCN(C)C3)c(C)c2)nc1Nc1cc2c(cc1C)C(=O)NC2C (stereo not shown)        < 5.00
26  CCn1nc(-c2ccc(C3CCCN(CC(F)(F)F)C3)cc2)nc1Nc1cc2c(cc1F)C(=O)NC2C (stereo not shown)        < 5.00
27  CCn1nc(-c2ccc(-n3cnc(C4CC4)c3)c(C)c2)nc1Nc1cc2c(cc1C)C(=O)NC2C (stereo not shown)  5.00 to 5.52
28  CCn1nc(-c2ccc(-c3ccc(C4CC4)nc3)c(C)c2)nc1Nc1cc2c(cc1F)C(=O)NC2C (stereo not shown)        < 5.00
29  CCn1nc(-c2ccc(-c3ccc(C)nc3)cc2C)nc1Nc1ccc2c(c1)C(C)NC2=O (stereo not shown)  5.00 to 5.52
30  CCn1nc(-c2ccc(-c3cnc(C4CC4)n3C)cc2)nc1Nc1ccc2c(c1)C(C)NC2=O (stereo not shown)  5.00 to 5.52
31  CCn1nc(-c2ccc(-c3ccc(C4CC4)nc3)cc2)nc1Nc1ccc2c(c1)C(C)NC2=O (stereo not shown)  5.00 to 5.52
